system: Nannizzia nana; test: checkerboard drug interaction (FICI, MICc); assay type: cell-based; details: in combination with ZOL;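 further: simplified diagonal checkerboard screen pairing antifungals with FPPS inhibitors, FICI calculated under the Loewe additivity model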
REPORTED_ENDPOINT: antifungal MICc
Answer with a number only.

Which antifungal MICc is reported for this molecule? C[C@@H](c1ncncc1F)[C@](O)(Cn1cncn1)c1ccc(F)cc1F [VOR]
0.0625

Which antifungal MICc is reported for this molecule? CC(=O)N1CCN(c2ccc(OCC3COC(Cn4ccnc4)(c4ccc(Cl)cc4Cl)O3)cc2)CC1 (stereo not drawn) [KET, ketoconazole]
0.13

Which antifungal MICc is reported for this molecule? CC[C@H](C)C[C@H](C)CCCCCCCCC(=O)N[C@H]1C[C@@H](O)[C@@H](NCCN)NC(=O)[C@@H]2[C@@H](O)CCN2C(=O)[C@H]([C@H](O)CCN)NC(=O)[C@H]([C@H](O)[C@@H](O)c2ccc(O)cc2)NC(=O)[C@@H]2C[C@@H](O)CN2C(=O)[C@H]([C@@H](C)O)NC1=O [CAS, caspofungin]
0.033
